Assignment: determine reported pKi for the given compounds.
# Tested on: human Factor XIa (Homo sapiens (Human))
# Sequence (P03951 388-625): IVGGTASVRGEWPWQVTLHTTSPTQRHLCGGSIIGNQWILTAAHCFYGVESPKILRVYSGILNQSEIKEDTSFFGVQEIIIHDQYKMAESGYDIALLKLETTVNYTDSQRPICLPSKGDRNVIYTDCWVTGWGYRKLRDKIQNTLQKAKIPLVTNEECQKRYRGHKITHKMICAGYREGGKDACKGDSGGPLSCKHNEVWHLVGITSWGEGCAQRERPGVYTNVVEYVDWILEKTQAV
# Sequence (P03951 19-387 partner): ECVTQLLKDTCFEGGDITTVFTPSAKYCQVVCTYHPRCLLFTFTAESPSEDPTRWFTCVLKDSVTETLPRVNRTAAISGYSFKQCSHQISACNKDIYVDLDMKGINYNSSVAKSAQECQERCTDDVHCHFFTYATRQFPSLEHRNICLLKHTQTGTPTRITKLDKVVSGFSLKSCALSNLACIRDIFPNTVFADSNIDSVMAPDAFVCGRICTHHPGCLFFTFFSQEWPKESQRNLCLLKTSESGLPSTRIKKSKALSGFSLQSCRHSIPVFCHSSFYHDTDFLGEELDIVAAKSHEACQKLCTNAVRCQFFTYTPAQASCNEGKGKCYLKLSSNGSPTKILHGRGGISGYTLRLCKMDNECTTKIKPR
# Protocol notes: Factor XIa Assay
# Assay type: biochemical
# Experimental parameters: read-out: FXIa Ki
Numbers only, as −log10 of the molar value.

Compound	Tested on	Numeric readout
COC(=O)Nc1ccc(CN[C@@H](Cc2ccccc2)C(=O)N2CC[C@@]3(C2)OC(=O)Nc2ccc(Cl)cc23)cc1 [Example 222]	human Factor XIa (Homo sapiens (Human))	5.06
CC(=O)Oc1cc(=O)[nH]c2ccc(C(=O)N[C@@H](Cc3ccccc3)C(=O)N3CCC[C@@]4(C3)OC(=O)Nc3ccc(Cl)c(F)c34)cc12 [Example 211]	human Factor XIa (Homo sapiens (Human))	7.40

Lookup: Fill in pKi for record Nc1noc2cc(C(=O)N[C@@H](Cc3ccccc3)C(=O)N3CC[C@@]4(C3)OC(=O)Nc3ccc(Cl)cc34)ccc12 [Example 217]
Found: 8.64
